Tested on: CRF-binding protein / CRF receptor 2 complex (human)
Experiment: agonists of CRF-BP/CRF-R2 complex, primary screen, cell-based, HEK293, calcium dye fluorescence, uHTS (AID 588473);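 also: plate controls were neutral control wells without compound for no effect and CRF at EC100 for full effect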
Details: calcium dye fluorescence (FLIPR), at 13.2 µM, hits give high values, percent of saturating CRF peptide response
The campaign covered roughly 350,000 compounds. About 1,600 (0.46%) were called active. This is one part of a sample in which actives are shown more often than they occur.
// values below are reported activation

[
  {
    "Molecule": "CCSc1nc2c(c(=O)[nH]1)C(c1cccnc1)C(C(=O)OC(C)C)=C(C)N2 (stereo unspecified)",
    "activation (%)": -11.6
  },
  {
    "Molecule": "CC(C)c1nc(CNC(=O)CC2C(=O)NCCN2Cc2ccoc2)cs1 (stereo unspecified)",
    "activation (%)": 3.31
  },
  {
    "Molecule": "CCOCCc1c(O)nc(SCC(=O)NCc2ccco2)[nH]c1=O",
    "activation (%)": 0.28
  },
  {
    "Molecule": "COc1ccc(/C=C(\\C#N)C(=O)OCC(=O)N(C)C2CCS(=O)(=O)C2)cc1 (stereo unspecified)",
    "activation (%)": -0.47
  },
  {
    "Molecule": "CCCCC(=O)NNC(=S)NC(=O)C(c1ccccc1)c1ccccc1",
    "activation (%)": 135
  },
  {
    "Molecule": "CCOc1ccc2nc(N3CCCN(C(=O)Nc4ccccc4C)CC3)c(C#N)cc2c1",
    "activation (%)": 53.4
  },
  {
    "Molecule": "CC(OC(=O)CCCOc1ccccc1)C(=O)Nc1ccc(Cl)cn1 (stereo unspecified)",
    "activation (%)": -1.67
  },
  {
    "Molecule": "COc1ccc(C)cc1NC(=O)CSc1nnc(CC(=O)Nc2ccccc2F)n1C",
    "activation (%)": 3.27
  },
  {
    "Molecule": "CCOc1ccc2nc(NCCNC(=O)C(C)(C)C)c(C)cc2c1",
    "activation (%)": 0.31
  },
  {
    "Molecule": "CCOc1ccc(C(=O)NC2CCN(C(=O)Nc3ccccc3OC)CC2)cc1",
    "activation (%)": 1.14
  },
  {
    "Molecule": "COc1ccc(/C=C(\\C#N)C(=O)ONC2=NCCCCC2)cc1",
    "activation (%)": -0.53
  }
]

---

System: CRF-binding protein / CRF receptor 2 complex (human)
Experiment: agonists of CRF-BP/CRF-R2 complex, primary screen, cell-based, HEK293, calcium dye fluorescence, uHTS (AID 588473);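 also: plate controls were neutral control wells without compound for no effect and CRF at EC100 for full effect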
Conditions: calcium dye fluorescence (FLIPR), at 13.2 µM, hits give high values, percent of saturating CRF peptide response
In all, about 350,000 compounds went through this assay and about 1,600 (0.46%) were called active. The sample holds actives, similar compounds and a random draw of the others, so the mix is not that of the screen.
Property label: activation

[
  {
    "Molecule": "CCc1ccccc1N1CN(Cc2ccco2)CNC1=S",
    "Property label": "activation",
    "Result": "80.2% (active)"
  },
  {
    "Molecule": "COc1ccc(-c2[nH]ncc2CN(C)Cc2cc(C)[nH]n2)c(F)c1",
    "Property label": "activation",
    "Result": "-4.41% (inactive)"
  },
  {
    "Molecule": "Cc1cccc(CN2CCN(Cc3cnn(-c4ccccc4F)c3)CC2CCO)n1 (stereo unspecified)",
    "Property label": "activation",
    "Result": "-2.69% (inactive)"
  },
  {
    "Molecule": "Cc1cc(Cl)ccc1C(=O)C1CCCN(C(=O)c2ccc3c(c2)OCO3)C1 (stereo unspecified)",
    "Property label": "activation",
    "Result": "-0.83% (inactive)"
  },
  {
    "Molecule": "O=C(COc1ccc(Cl)cc1)NC(=S)Nc1ccccc1N1CCOCC1",
    "Property label": "activation",
    "Result": "1.42% (inactive)"
  },
  {
    "Molecule": "C#CCN(N(C)c1ncc(C(F)(F)F)cc1Cl)S(=O)(=O)c1ccc2ccccc2c1",
    "Property label": "activation",
    "Result": "64.8% (active)"
  },
  {
    "Molecule": "Oc1ccc(-c2nncn2-c2ccccc2)cc1",
    "Property label": "activation",
    "Result": "0.43% (inactive)"
  },
  {
    "Molecule": "CN(NS(=O)(=O)c1cccs1)c1ncc(C(F)(F)F)cc1Cl",
    "Property label": "activation",
    "Result": "-0.09% (inactive)"
  },
  {
    "Molecule": "CCCCNC(=O)c1ccccc1NC(=O)c1ccccc1N(C)S(C)(=O)=O",
    "Property label": "activation",
    "Result": "-1.79% (inactive)"
  },
  {
    "Molecule": "CC(NC(=O)c1ccc(Cl)cc1)C(=O)N1CCCCC1 (stereo unspecified)",
    "Property label": "activation",
    "Result": "0.19% (inactive)"
  },
  {
    "Molecule": "Cc1nn(CC#N)c(=O)n1N(C)c1ncc(C(F)(F)F)cc1Cl",
    "Property label": "activation",
    "Result": "1.06% (inactive)"
  }
]

---

Tested on: CRF-binding protein / CRF receptor 2 complex (human)
Test: agonists of CRF-BP/CRF-R2 complex, primary screen, cell-based, HEK293, calcium dye fluorescence, uHTS (AID 588473);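 also: plate controls were neutral control wells without compound for no effect and CRF at EC100 for full effect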
Settings: calcium dye fluorescence (FLIPR), at 13.2 µM, percent of saturating CRF peptide response
In all, about 350,000 compounds went through this assay and about 1,600 (0.46%) were called active.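 Rule for the calls: active = activation of at least 50%, plus an integration ratio under a set limit after plate pattern correction; inactive = the rest.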 This excerpt belongs to a sample that is enriched for actives.
Outcome codes: active, inactive

[
  {
    "Molecule": "C[C@@H]1NS(=O)(=O)c2cc(Cl)ccc2O[C@@H]1c1ccccc1",
    "Subject of test": "CRF-binding protein / CRF receptor 2 complex (human)",
    "Assigned label": "inactive"
  },
  {
    "Molecule": "O=C(CSc1nnc(-c2ccc([N+](=O)[O-])cc2)o1)Nc1ccccn1",
    "Subject of test": "CRF-binding protein / CRF receptor 2 complex (human)",
    "Assigned label": "inactive"
  },
  {
    "Molecule": "CCCCCCCC[n+]1cccc(C(=O)N2c3c(nc(N)[nH]c3=O)NC(C)C2C)c1 (configuration not stated)",
    "Subject of test": "CRF-binding protein / CRF receptor 2 complex (human)",
    "Assigned label": "inactive"
  },
  {
    "Molecule": "CCCCN1C[C@H](c2ccc(Br)cc2)[C@@H](CC(=O)Nc2ccc(Br)cc2)C1=O",
    "Subject of test": "CRF-binding protein / CRF receptor 2 complex (human)",
    "Assigned label": "inactive"
  },
  {
    "Molecule": "O=C(CCc1ccccc1)NNC(=O)COc1ccc(Cl)cc1",
    "Subject of test": "CRF-binding protein / CRF receptor 2 complex (human)",
    "Assigned label": "inactive"
  },
  {
    "Molecule": "COc1cc([N+](=O)[O-])cc([N+](=O)[O-])c1NC(=O)N1CCOCC1",
    "Subject of test": "CRF-binding protein / CRF receptor 2 complex (human)",
    "Assigned label": "inactive"
  },
  {
    "Molecule": "COc1ccc2c(c1)C(=O)CC(c1ccccc1)O2 (configuration not stated)",
    "Subject of test": "CRF-binding protein / CRF receptor 2 complex (human)",
    "Assigned label": "inactive"
  },
  {
    "Molecule": "COc1ccc2c(c1)OC(O)(C(F)(F)C(F)F)CC2=O (configuration not stated)",
    "Subject of test": "CRF-binding protein / CRF receptor 2 complex (human)",
    "Assigned label": "active"
  },
  {
    "Molecule": "COc1cc(OC)cc(C(=O)NC(=S)N2CCN(c3ccc(C(F)(F)F)cc3[N+](=O)[O-])CC2)c1",
    "Subject of test": "CRF-binding protein / CRF receptor 2 complex (human)",
    "Assigned label": "inactive"
  },
  {
    "Molecule": "Cc1ccc2oc(=O)ccc2c1",
    "Subject of test": "CRF-binding protein / CRF receptor 2 complex (human)",
    "Assigned label": "inactive"
  },
  {
    "Molecule": "CCOc1ccc(NCCC(=O)c2ccc3c(c2)OCO3)cc1",
    "Subject of test": "CRF-binding protein / CRF receptor 2 complex (human)",
    "Assigned label": "inactive"
  },
  {
    "Molecule": "COc1cccc2c1C(=O)c1c(O)c3c(c(O)c1C2=O)CC(O)(C(C)=NNC(=O)c1ccc(Cl)c(Cl)c1)CC3OC1CC(N)C(O)C(C)O1 (configuration not stated)",
    "Subject of test": "CRF-binding protein / CRF receptor 2 complex (human)",
    "Assigned label": "active"
  }
]
